Attribution: PubChem BioAssay AID602329

# assayedTarget: DNA repair and recombination protein RAD54-like (Homo sapiens)
# protocolText: inhibitors of human RAD54 branch migration, primary screen, biochemical, fluorescence, single point (AID 602329);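 further: 0% = median of neutral control wells and 100% = median of positive control wells; inhibitors cause a drop in the FAM fluorescence signal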
# conditionNotes: RAD54 Holliday junction branch migration, FAM/BHQ fluorescence; at 10.4 µM
In all, about 360,000 compounds went through this assay and about 510 (0.14%) were called active.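 How the source made its calls: active means mean normalized replicate activity at least 40 and at least half of replicates scoring 40 or more; inconclusive means only one of the two criteria met; inactive means mean below 40 and under half of replicates reaching 40.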 For the sample, actives were picked, then their nearest neighbours and some compounds at random.
Bench note: report the call from 1 for active, 0 for inactive

Field: outcome | Entry: CC(C)NC(=O)N(C)C[C@@H]1Oc2ncc(-c3ccc(C(=O)N(C)C)cc3)cc2C(=O)N([C@H](C)CO)C[C@H]1C
0

Field: outcome | Entry: Cc1noc(C)c1NC(=O)N(C)C[C@H]1Oc2ccc(NS(=O)(=O)c3ccc(Cl)cc3)cc2CC(=O)N([C@H](C)CO)C[C@@H]1C
0

Field: outcome | Entry: COc1ccc(S(=O)(=O)N2CCOCC2)cc1NC(=O)c1ccc(OCC(C)C)c(OC)c1
0

Field: outcome | Entry: C/C=C/c1cnc2c(c1)C(=O)N([C@@H](C)CO)C[C@H](C)[C@H](CN(C)C(=O)CN1CCOCC1)O2
0

Field: outcome | Entry: CCC(=O)N(C)C[C@@H]1Oc2ncc(/C=C/c3ccccc3)cc2C(=O)N([C@@H](C)CO)C[C@H]1C
0

Field: outcome | Entry: O=c1oc2c(CN3CCCCC3)c(O)ccc2c2c1CCCCC2
0

Field: outcome | Entry: COC(=O)[C@@H]1[C@@H](CO)[C@@H]2Cn3c(ccc(-c4ccccc4)c3=O)[C@@H]2N1C(=O)C1CC1
0

Field: outcome | Entry: Cc1ccccc1-c1ccc2c(c1)O[C@@H](CN(C)Cc1ccc(C(=O)O)cc1)[C@H](C)CN([C@H](C)CO)S2(=O)=O
0

Field: outcome | Entry: COC(=O)c1c(NC(=O)c2ccc(S(=O)(=O)N3CCOCC3)cc2)sc2c1CCN(C(C)C)C2
1

Field: outcome | Entry: CC(C)NC(=O)Nc1ccc2c(c1)C(=O)N([C@@H](C)CO)C[C@@H](C)[C@H](CN(C)C(=O)NC1CCCCC1)O2
0

Field: outcome | Entry: COc1cccc(NC(=O)C[C@@H]2CC[C@H]3[C@@H](COc4ccc(NC(=O)C5CCOCC5)cc4C(=O)N3C)O2)c1
0

Field: outcome | Entry: Cc1ccc(S(=O)(=O)N(C)C[C@H]2Oc3ccc(NC(=O)C4CC4)cc3C(=O)N([C@H](C)CO)C[C@H]2C)cc1
0

Field: outcome | Entry: N#Cc1ccccc1S(=O)(=O)N1CCN(Cc2c(O)ccc3ccccc23)CC1
0

Field: outcome | Entry: CC(OC(=O)c1ccc(S(=O)(=O)N2CCOCC2)cc1)c1ccccc1 (stereo unspecified)
0

Field: outcome | Entry: C[C@H](CO)N1C[C@H](C)[C@H](CN(C)S(=O)(=O)c2cccs2)Oc2c(NS(=O)(=O)c3ccc(Cl)cc3)cccc2C1=O
0

Field: outcome | Entry: CCCC#Cc1cnc2c(c1)C(=O)N([C@H](C)CO)C[C@@H](C)[C@@H](CN(C)C(=O)Nc1ccccc1F)O2
0

====

# assayedTarget: DNA repair and recombination protein RAD54-like (Homo sapiens)
# protocolText: inhibitors of human RAD54 branch migration, primary screen, biochemical, fluorescence, single point (AID 602329);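 further: 0% = median of neutral control wells and 100% = median of positive control wells; inhibitors cause a drop in the FAM fluorescence signal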
# conditionNotes: RAD54 Holliday junction branch migration, FAM/BHQ fluorescence; at 10.4 µM; active compounds read high
Screen size: about 360,000 compounds; about 510 (0.14%) were called active. This excerpt belongs to a sample that is enriched for actives.
Provide the recorded inhibition for the entries that follow.
Express the result in % but write the number alone.

Indicate its recorded inhibition; the compound in question is CO[C@@H]1CN(C)C(=O)c2ccc(NS(C)(=O)=O)cc2OC[C@H](C)NC[C@H]1C
0.663

Indicate its recorded inhibition; the compound in question is CC(C)NC(=O)N(C)C[C@H]1OCCCC[C@H](C)Oc2ccc(NC(=O)Nc3ccc4c(c3)OCO4)cc2C(=O)N([C@H](C)CO)C[C@@H]1C
-0.838

Indicate its recorded inhibition; the compound in question is COc1cccc2sc3cc(NCC[C@@H]4CCCN4C)ccc3c(=O)c12
94

Indicate its recorded inhibition; the compound in question is CN1CCC[C@@H]1CCO[C@](C)(c1ccccc1)c1ccc(Cl)cc1
11.3

Indicate its recorded inhibition; the compound in question is C[C@H]1CN([C@@H](C)CO)C(=O)c2cc(C#CC3CCCC3)cnc2O[C@@H]1CN(C)C(=O)Cc1ccccn1
3.4

Indicate its recorded inhibition; the compound in question is O=C(NC1Cc2ccccc2C1)[C@@H]1[C@@H](CO)[C@@H]2Cn3c(ccc(C4=CCCC4)c3=O)[C@H]1N2CC1CC1
2.91

Indicate its recorded inhibition; the compound in question is CO[C@@H]1CN(C)C(=O)c2cc(NS(=O)(=O)CC(F)(F)F)ccc2OC[C@@H](C)N(Cc2ccccn2)C[C@H]1C
-9.64

Indicate its recorded inhibition; the compound in question is COc1ccccc1C(=O)N1C[C@H]2[C@@H](c3ccccc31)[C@H](CO)N2C(=O)C1CC1
-5.07

Indicate its recorded inhibition; the compound in question is CN1c2ccc(-c3cccc(C#N)c3)cc2[C@@H]2[C@@H](CCN2C(=O)NC2CCCCC2)[C@@H]1CO
-3.76

Indicate its recorded inhibition; the compound in question is C[C@@H]1CN([C@H](C)CO)C(=O)c2cc(NC(=O)CCCN(C)C)ccc2O[C@H]1CN(C)S(=O)(=O)c1ccc(Cl)cc1
3.22

Indicate its recorded inhibition; the compound in question is OC[C@@H]1[C@H](c2ccc(C3=CCCC3)cc2)[C@H]2CN(Cc3ccncc3)CCCCN12
1.55

Indicate its recorded inhibition; the compound in question is COc1cccc(C(=O)Nc2ccc3c(c2)C(=O)N(C)[C@@H]2CC[C@@H](CC(=O)NCCCN4CCOCC4)O[C@@H]2CO3)c1
8.84

Indicate its recorded inhibition; the compound in question is C[C@@H](NC(=O)C[C@H]1C[C@H]2c3cc(NC(=O)C4CCOCC4)ccc3O[C@H]2[C@@H](CO)O1)c1ccccc1
-0.474

Indicate its recorded inhibition; the compound in question is Cc1cc(C(=O)Nc2cccc3c2O[C@@H](CN(C)C(=O)Nc2ccc4c(c2)OCO4)[C@H](C)CN([C@@H](C)CO)C3=O)n(C)n1
14.9

Indicate its recorded inhibition; the compound in question is CCCN(C)C[C@H]1Oc2cc(-c3ccc(C)cc3)ccc2S(=O)(=O)N([C@H](C)CO)C[C@H]1C
-15

Indicate its recorded inhibition; the compound in question is CCC(=O)Nc1ccc2c(c1)C(=O)N(C)C[C@H](OC)[C@@H](C)CN(Cc1cccnc1)[C@H](C)CO2
-1.44

Indicate its recorded inhibition; the compound in question is C[C@@H]1CN([C@@H](C)CO)S(=O)(=O)c2ccc(-c3ccccc3F)cc2O[C@H]1CN(C)Cc1cncnc1
-6.21

Indicate its recorded inhibition; the compound in question is C[C@H]1CCCCO[C@@H](CN(C)C(=O)c2ccccc2)[C@@H](C)CN([C@@H](C)CO)C(=O)c2cc(NS(=O)(=O)c3cccs3)ccc2O1
-5.69

Indicate its recorded inhibition; the compound in question is Cc1ccc(S(=O)(=O)Nc2ccc3c(c2)C(=O)N([C@H](C)CO)C[C@H](C)[C@@H](CN(C)S(=O)(=O)c2cn(C)cn2)OCCCC[C@H](C)O3)cc1
1.15

Indicate its recorded inhibition; the compound in question is O=C(Nc1cc(F)ccc1F)N1C[C@H]2[C@@H](c3ccccc31)[C@@H](CO)N2C(=O)c1ccccc1
8.71

Indicate its recorded inhibition; the compound in question is COc1ccc(S(=O)(=O)Nc2ccc3c(c2)C(=O)N([C@@H](C)CO)C[C@@H](C)[C@@H](CN(C)S(C)(=O)=O)O3)cc1
-4.67

Indicate its recorded inhibition; the compound in question is O=C(NCCCN1CCOCC1)c1cnn2c(-c3ccccc3)cc(-c3ccccc3)nc12
58.3

Indicate its recorded inhibition; the compound in question is C[C@@H]1CN([C@@H](C)CO)C(=O)c2cccc(NS(=O)(=O)c3ccccc3)c2O[C@@H]1CN(C)S(=O)(=O)c1ccc(F)cc1
-8.79
